# target: recombinant human MNL phosphodiesterase type IV B (Homo sapiens)
# Sequence (Q07343 1-564 isoform Q07343-2): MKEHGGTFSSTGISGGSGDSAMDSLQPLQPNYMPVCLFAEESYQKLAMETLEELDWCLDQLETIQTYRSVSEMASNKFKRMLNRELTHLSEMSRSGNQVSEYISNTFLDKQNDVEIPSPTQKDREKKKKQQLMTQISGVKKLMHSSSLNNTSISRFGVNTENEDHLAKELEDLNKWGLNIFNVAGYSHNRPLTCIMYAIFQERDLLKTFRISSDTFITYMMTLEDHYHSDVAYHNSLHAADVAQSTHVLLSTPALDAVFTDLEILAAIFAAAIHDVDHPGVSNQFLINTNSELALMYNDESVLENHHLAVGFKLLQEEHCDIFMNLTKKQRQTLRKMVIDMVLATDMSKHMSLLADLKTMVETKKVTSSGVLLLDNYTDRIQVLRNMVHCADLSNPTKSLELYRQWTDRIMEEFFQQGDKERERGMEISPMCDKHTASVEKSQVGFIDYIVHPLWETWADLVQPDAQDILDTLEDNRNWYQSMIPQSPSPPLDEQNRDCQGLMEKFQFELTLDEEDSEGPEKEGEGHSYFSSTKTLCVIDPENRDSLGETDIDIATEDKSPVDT
# assaySummary: Inhibition of Recombinant Human Mononuclear Lymphocyte (MNL) Phosphodiesterase Type IV B Produced in Insect Cells with a Baculovirus Vector
# conditionDetails: 0.8 μM 3H-cAMP, pH 8, 10 min, 37° C., 1% DMSO; read-out: IC50 value, recombinant human MNL phosphodiesterase PDE IV B
pIC50: −log10 of the molar value.
Reported pIC50 values for a set of compounds

givensmiles=C=C(Cn1cc[nH]c1=O)c1ccc(OC)c(OC2CCCC2)c1 endpointvalue="> 6.00"

Proceeding to the next compound to report its pIC50.
Test item "COc1ccc(C(=O)Cn2ccnc2O)cc1OC1CCCC1" ; recombinant human MNL phosphodiesterase type IV B (Homo sapiens); reported pIC50 was > 6.00
